- study-system: feline FcRn (IgG receptor FcRn large subunit p51 with feline beta-2-microglobulin) (feline)
- experiment: SPR Biacore 8K+, IgG on C1 chip, pH 5.9, 1:1 kinetic fit
Would you kindly list Kd for each of these binders?
Reply numerically in nM, unit not repeated.

Measured Kd, anti-NGF feline IgG1a, Fc variant S428Y, Q311V, T286E (antibody, part only; not given: anti-NGF variable domains, light chain, not shown: another chain or arm of the molecule; small tags and cut ends) Fc: PPEMLGGPSIFIFPPKPKDTLSISRTPEVTCLVVDLGPDDSDVQITWFVDNTQVYEAKTSPREEQFNSTYRVVSVLPILHVDWLKGKEFKCKVNSKSLPSPIERTISKAKGQPHEPQVYVLPPAQEELSRNKVSVTCLIKSFHPPDIAVEWEITGQPEPENNYRTTPPQLDSDGTYFVYSKLSVDRSHWQRGNTYTCSVYHEALHSHHTQKSLTQSPGK : 6.11

Measured Kd, anti-NGF feline IgG1a, Fc variant S428Y, Q311V, E380T (antibody, part only; not given: anti-NGF variable domains, not shown: another chain or arm of the molecule; small tags and cut ends) Fc: PPEMLGGPSIFIFPPKPKDTLSISRTPEVTCLVVDLGPDDSDVQITWFVDNTQVYTAKTSPREEQFNSTYRVVSVLPILHVDWLKGKEFKCKVNSKSLPSPIERTISKAKGQPHEPQVYVLPPAQEELSRNKVSVTCLIKSFHPPDIAVTWEITGQPEPENNYRTTPPQLDSDGTYFVYSKLSVDRSHWQRGNTYTCSVYHEALHSHHTQKSLTQSPGK : 20.1

Measured Kd, anti-NGF feline IgG1a, Fc variant S428Y, L309V (antibody, part only; not given: Anti-NGF variable domains, not shown: another chain or arm of the molecule; small tags and cut ends) Fc: PPEMLGGPSIFIFPPKPKDTLSISRTPEVTCLVVDLGPDDSDVQITWFVDNTQVYTAKTSPREEQFNSTYRVVSVLPIVHQDWLKGKEFKCKVNSKSLPSPIERTISKAKGQPHEPQVYVLPPAQEELSRNKVSVTCLIKSFHPPDIAVEWEITGQPEPENNYRTTPPQLDSDGTYFVYSKLSVDRSHWQRGNTYTCSVYHEALHSHHTQKSLTQSPGK : 35.3
